Target: Beta-arrestin-1 (Oryctolagus cuniculus, UniProt Q95223)
Sequence (Q95223 whole entry): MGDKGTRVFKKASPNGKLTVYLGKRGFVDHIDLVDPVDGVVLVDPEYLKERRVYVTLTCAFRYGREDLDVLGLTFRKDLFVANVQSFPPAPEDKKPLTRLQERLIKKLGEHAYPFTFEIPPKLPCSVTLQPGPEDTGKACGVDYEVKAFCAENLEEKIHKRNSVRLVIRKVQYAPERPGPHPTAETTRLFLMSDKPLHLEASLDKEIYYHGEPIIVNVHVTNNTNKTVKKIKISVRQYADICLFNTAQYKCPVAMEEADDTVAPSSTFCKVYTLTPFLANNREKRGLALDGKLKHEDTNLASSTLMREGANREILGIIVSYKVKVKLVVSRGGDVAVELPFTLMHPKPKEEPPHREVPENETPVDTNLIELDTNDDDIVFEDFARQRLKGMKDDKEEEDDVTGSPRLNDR

{"columns": ["compound", "studyTarget", "Ki [nM]"],
 "data": [
  ["CCCOc1c(OC)cc([C@H]2CC[C@H](c3cc(OC)c(OC)c(OC)c3)O2)cc1S(C)(=O)=O [L-659,989, (-)]", "Beta-arrestin-1 (Oryctolagus cuniculus, UniProt Q95223)", 0.51]
]}

---

Biological target: Platelet-activating factor receptor (Homo sapiens, UniProt P25105)
Sequence (P25105 whole entry): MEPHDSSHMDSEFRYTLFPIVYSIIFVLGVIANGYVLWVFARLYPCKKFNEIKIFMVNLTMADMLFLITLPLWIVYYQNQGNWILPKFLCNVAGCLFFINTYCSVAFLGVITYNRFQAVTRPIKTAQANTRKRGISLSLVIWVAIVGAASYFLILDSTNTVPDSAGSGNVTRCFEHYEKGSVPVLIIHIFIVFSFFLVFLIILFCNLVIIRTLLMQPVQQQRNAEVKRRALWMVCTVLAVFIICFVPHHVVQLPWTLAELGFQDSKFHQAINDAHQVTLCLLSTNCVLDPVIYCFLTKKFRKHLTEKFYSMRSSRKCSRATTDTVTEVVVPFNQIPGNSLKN

{"columns": ["molecule", "studyTarget", "Ki, nM"],
 "data": [
  ["CCCOc1c(OC)cc([C@H]2CC[C@H](c3cc(OC)c(OC)c(OC)c3)O2)cc1S(C)(=O)=O [L-659,989, (-)]", "Platelet-activating factor receptor (Homo sapiens, UniProt P25105)", 5.48]
]}
